system: Sgk1 (Homo sapiens)
Sequence (O00141 whole entry): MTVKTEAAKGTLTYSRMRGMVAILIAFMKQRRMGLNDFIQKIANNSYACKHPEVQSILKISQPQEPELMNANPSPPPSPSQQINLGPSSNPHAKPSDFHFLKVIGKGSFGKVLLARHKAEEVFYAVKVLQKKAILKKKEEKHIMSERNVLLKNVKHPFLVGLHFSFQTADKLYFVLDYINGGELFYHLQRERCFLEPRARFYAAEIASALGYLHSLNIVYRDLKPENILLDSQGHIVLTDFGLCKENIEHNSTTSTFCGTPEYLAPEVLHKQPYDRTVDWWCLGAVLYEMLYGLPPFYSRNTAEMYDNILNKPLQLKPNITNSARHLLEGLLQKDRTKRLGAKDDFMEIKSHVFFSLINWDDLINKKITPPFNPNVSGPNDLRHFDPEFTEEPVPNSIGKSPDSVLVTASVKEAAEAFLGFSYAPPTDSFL
methodNotes: Enzyme based assay for SGK1 (biotinylated Akt Substrates-2 peptide, Eu3+ Cryptate/XL665 detection)
Type: biochemical
conditionContext: 50 μM ATP; read-out: Sgk1 (50 μM ATP)
endpointLabel: pIC50
Keep it numeric: pIC50 is minus log10 of the concentration in mol/L.

Q) Give the value of pIC50 reported for the following: CCOc1cc(-c2ccc(NS(=O)(=O)c3cc(OC)ccc3F)cn2)cc2[nH]nc(N)c12
A) 7.85

Q) Give the value of pIC50 reported for the following: COc1ccc(F)c(S(=O)(=O)Nc2ccc(-c3cc(OC)c4c(N)n[nH]c4c3)nc2)c1
A) 7.89

Q) Give the value of pIC50 reported for the following: COc1ccc(F)c(S(=O)(=O)Nc2ccc(-c3cc4[nH]nc(N)c4c(C)n3)cc2)c1 [drawing 110]
A) 7.97
